Reported pIC50 values for a set of molecules
Biological target: human PRMT1 (Homo sapiens)
Construct: GST-tagged PRMT1; made in house; host or cells: High Five insect cells (baculovirus, pFastBac1)
Test: PRMT1 Biochemical Assay
Settings: peptide substrate, 3H-SAM Flashplate assay; read-out: PRMT1 IC50
# reply with the number alone; pIC50 is -log10 of concentration in mol/L

Sample answers from the record:
molecule: CNCCN(C)Cc1c[nH]nc1-c1ccc(OC2CC(OCCN3CCOCC3)C2)cc1 (centres unmarked)
pIC50: 6.96
--
molecule: CNCCN(C)Cc1c[nH]nc1-c1cc(OC2CCOC2)cc(C(F)(F)F)c1 (centres unmarked)
pIC50: 7.68
--
molecule: CNCCN(C)Cc1c[nH]nc1-c1ccc(OCCOc2ccc(Oc3ccc(OCCOC)cc3)cc2)cc1
pIC50: 8.24
--
molecule: CNCCN(C)Cc1c[nH]nc1-c1cc(CC(F)(F)F)cc(OCCOC)c1
pIC50: 7.82

Which pIC50 is reported with human PRMT1 (Homo sapiens) for this entry: CNCCN(C)Cc1c[nH]nc1-c1cnc(OCCCOC)c(C(F)(F)F)c1 ?
7.69

====

Molecular target: human PRMT6 (Homo sapiens, UniProt Q96LA8)
Construct: Flag-PRMT6-His; made in house; host or cells: HEK 293F cells (BacMam baculovirus, pFastBacMam)
Sequence (Q96LA8 with tags, fused parts or gaps): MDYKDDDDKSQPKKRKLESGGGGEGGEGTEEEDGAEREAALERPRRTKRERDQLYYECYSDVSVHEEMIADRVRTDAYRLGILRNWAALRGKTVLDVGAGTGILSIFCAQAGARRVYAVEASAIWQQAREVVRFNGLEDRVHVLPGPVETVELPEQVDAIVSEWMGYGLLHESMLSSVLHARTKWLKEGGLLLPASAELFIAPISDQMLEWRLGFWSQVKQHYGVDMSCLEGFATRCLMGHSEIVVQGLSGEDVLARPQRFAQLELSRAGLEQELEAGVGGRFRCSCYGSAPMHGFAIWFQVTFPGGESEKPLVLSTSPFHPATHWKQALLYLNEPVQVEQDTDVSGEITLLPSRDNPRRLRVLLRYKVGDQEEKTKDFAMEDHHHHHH
Test: PRMT6 Biochemical Assay
Settings: peptide substrate, 3H-SAM Flashplate assay; read-out: PRMT6 IC50
Entries whose IC50 is below 40 nM take met; entries at or above 40 nM take not met.

Solved cases below.
molecule: CNCCN(C)Cc1c[nH]nc1-c1ccc(OCCOc2ccc(N3CCOCC3)cc2)cc1
label.class: met

molecule: CCN(CCOc1cccc(OC)c1)c1ccc(-c2n[nH]cc2CN(C)CCNC)cc1
label.class: met

molecule: COCCOc1cc(-c2n[nH]cc2CN(C)CCN)cc(C(F)(F)F)c1
label.class: not met

molecule: CNCCN(C)Cc1c[nH]nc1-c1ccc(OCCOc2cccc(OCCC3CCOCC3)c2)cc1
label.class: met

molecule: CNCCN(C)Cc1c[nH]nc1-c1ccc(OCCc2ccccc2)cc1
label.class: met

molecule: CNCCN(C)Cc1c[nH]nc1-c1cnc(OCCOC)c(C(F)(F)F)c1
label.class: not met

molecule: CNCCN(C)Cc1c[nH]nc1-c1cc(Cl)c(OCC(C)C)c(C(F)(F)F)c1
label.class: not met

molecule: CNCCN(C)Cc1c[nH]nc1-c1ccc(OCCOc2ccc(OCC(C)C)cc2)cc1
label.class: met

Now for a further compound.
Dear reviewer, please state whether CNCCN(C)Cc1c[nH]nc1-c1ccc(OC(C)C)nc1 has IC50 strictly beneath 40 nM.
not met

====

Biological target: human PRMT1 (Homo sapiens, UniProt Q99873)
Construct: GST-tagged PRMT1; made in house; host or cells: High Five insect cells (baculovirus, pFastBac1)
Sequence (Q99873 with tags, fused parts or gaps): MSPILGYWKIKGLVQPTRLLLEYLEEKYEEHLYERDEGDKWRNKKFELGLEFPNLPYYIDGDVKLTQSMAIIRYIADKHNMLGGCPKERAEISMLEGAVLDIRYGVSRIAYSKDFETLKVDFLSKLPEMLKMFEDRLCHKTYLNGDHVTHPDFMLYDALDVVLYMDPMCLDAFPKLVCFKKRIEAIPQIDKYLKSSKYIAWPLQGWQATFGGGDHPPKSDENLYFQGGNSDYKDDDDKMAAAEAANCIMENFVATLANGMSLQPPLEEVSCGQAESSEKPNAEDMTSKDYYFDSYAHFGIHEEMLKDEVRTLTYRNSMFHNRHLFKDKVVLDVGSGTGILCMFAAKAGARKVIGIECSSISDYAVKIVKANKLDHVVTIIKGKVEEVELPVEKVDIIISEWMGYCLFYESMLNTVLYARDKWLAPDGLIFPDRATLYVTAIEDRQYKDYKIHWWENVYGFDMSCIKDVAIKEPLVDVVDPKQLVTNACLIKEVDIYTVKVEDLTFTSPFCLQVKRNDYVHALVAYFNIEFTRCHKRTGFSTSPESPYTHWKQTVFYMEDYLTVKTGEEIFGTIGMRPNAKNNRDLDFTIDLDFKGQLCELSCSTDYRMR
Experiment: PRMT1 Biochemical Assay
Conditions: peptide substrate, 3H-SAM Flashplate assay; read-out: PRMT1 IC50
test.readout: IC50 (nM)
Number only, in nM; omit the unit.

Sample answers from the record:
molecule: CNCCN(C)Cc1c[nH]nc1-c1ccc(OC2CCC(OCCOC)CC2)cc1 (stereo not drawn)
uom: nM
IC50: 28.5
--
molecule: CNCCN(C)Cc1c[nH]nc1-c1ccc(N(C)CCCOc2ccc(OC)cc2)cc1 [Compound 136]
uom: nM
IC50: 5.21
--
molecule: CNCCN(C)Cc1c[nH]nc1-c1ccc(N(C)C2CCOCC2)cc1
uom: nM
IC50: 36.7

Lab note: next molecule to report on.
GET /values?readout=IC50&item= CNCCN(C)Cc1c[nH]nc1-c1ccc(OCCOc2ccc(OC(F)(F)F)cc2)cc1
6.83

====

Reported log10 IC50 values for a set of molecules
Biological target: human PRMT1 (Homo sapiens)
Construct: GST-tagged PRMT1; made in house; host or cells: High Five insect cells (baculovirus, pFastBac1)
Experiment: PRMT1 Biochemical Assay
Settings: peptide substrate, 3H-SAM Flashplate assay; read-out: PRMT1 IC50
Description: S-adenosylmethionine (SAM), S-adenosylhomocysteine (SAH), bicine, Tween20, dimethylsulfoxide (DMSO), bovine skin gelatin (BSG), and Tris(2-carboxyethyl)phosphine hydrochloride solution (TCEP) were purchased from Sigma-Aldrich at the highest level of purity possible. ^3H-SAM was purchase from American Radiolabeled Chemicals with a specific activity of 80 Ci/mmol. 384-well streptavidin Flashplates were purchased from PerkinElmer. […]
# values: log10(IC50), units µM

molecule: CCC(CC)Oc1ccc(-n2nc(C)cc2CN(C)CCNC)cc1
test.system: human PRMT1 (Homo sapiens)
value: -1.85
//
molecule: CCN(c1ccc(-c2n[nH]cc2CN(C)CCNC)cn1)C1CCOCC1
test.system: human PRMT1 (Homo sapiens)
value: -1.34
//
molecule: CNCCN(C)Cc1c[nH]nc1-c1ccc(OCCOc2ccc(OCCC3CCOCC3)cc2)cc1
test.system: human PRMT1 (Homo sapiens)
value: -1.95
//
molecule: CNCCN(C)Cc1c[nH]nc1-c1ccc(OCCOc2ccc(C(O)CO)cc2)cc1 (stereo not drawn)
test.system: human PRMT1 (Homo sapiens)
value: -2.21
//
molecule: CNCCN(C)Cc1c[nH]nc1-c1ccc(OCCC(O)CO)cc1 (stereo not drawn)
test.system: human PRMT1 (Homo sapiens)
value: -1.34
//
molecule: CNCCN(C)Cc1ccnn1C1CCC2(CCOC2)CC1 (stereo not drawn)
test.system: human PRMT1 (Homo sapiens)
value: -1.95
//
molecule: CNCCN(C)Cc1c[nH]nc1-c1ccc(OCCOc2ccnnc2)cc1
test.system: human PRMT1 (Homo sapiens)
value: -1.43
//
molecule: CNCCN(C)Cc1c[nH]nc1-c1ccc(OCCOc2ccc(OCCN3CCOCC3)cc2)cc1
test.system: human PRMT1 (Homo sapiens)
value: -2.02

GET /values?readout=log10 IC50&item= CNCCN(C)Cc1c[nH]nc1-c1cc(OCCCC(C)C)cc(C(F)(F)F)c1
-2.27

Another molecule to check: CNCCN(C)Cc1c[nH]nc1-c1ccc(OC2CC(O)C2)cc1 (stereo not drawn)
-1.67

Another molecule to check: CCOCC(C)(C)c1cc(OCCOC)cc(-c2n[nH]cc2CN(C)CCNC)c1
-1.37

Another molecule to check: COCCOc1cc(-c2n[nH]cc2CN(C)CCN)cc(C(F)F)c1
-2.16

Another molecule to check: CNCCN(C)Cc1c[nH]nc1-c1cc(Cl)c(OCC2CCC2)c(Cl)c1
-2.44

Another molecule to check: CCOCC(C)c1cc(OCCOC)cc(-c2n[nH]cc2CN(C)CCNC)c1 (stereo not drawn)
-1.31

Another molecule to check: CNCCN(C)Cc1c[nH]nc1-c1ccc(OCCOc2ccccc2)cc1
-1.89

====

Target: human PRMT8 (Homo sapiens, UniProt Q9NR22)
Sequence (Q9NR22 whole entry): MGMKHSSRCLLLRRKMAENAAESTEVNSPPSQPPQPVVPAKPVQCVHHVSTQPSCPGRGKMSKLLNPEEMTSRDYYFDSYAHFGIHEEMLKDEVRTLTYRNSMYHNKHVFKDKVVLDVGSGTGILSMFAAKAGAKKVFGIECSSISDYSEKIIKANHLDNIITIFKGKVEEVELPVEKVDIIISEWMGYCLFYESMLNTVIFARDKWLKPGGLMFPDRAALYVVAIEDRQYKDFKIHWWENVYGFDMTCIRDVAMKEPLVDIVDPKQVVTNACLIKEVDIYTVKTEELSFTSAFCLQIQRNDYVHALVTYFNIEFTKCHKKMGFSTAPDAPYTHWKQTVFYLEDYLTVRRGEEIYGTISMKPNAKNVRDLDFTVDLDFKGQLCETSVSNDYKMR
Test: PRMT8 Biochemical Assay
Conditions: PRMT8 IC50 (uM), peptide substrate, 3H-SAM Flashplate assay
test.readout: IC50 (µM)
Number only, in µM; omit the unit.

Sample answers from the record:
molecule: CNCCN(C)Cc1c[nH]nc1-c1ccc(N(C)CCOc2ccc(OC)cc2)cc1 [Compound 41]
uom: µM
IC50: 0.0334

molecule: CNCCN(C)Cc1c[nH]nc1-c1ccc(OC2CC(OCCN3CCOCC3)C2)cc1 (stereo not drawn) [Compound 147]
uom: µM
IC50: 0.162

molecule: CNCCN(C)Cc1ccnn1-c1ccc(OC(C)C)cc1 [Compound 80]
uom: µM
IC50: 0.0494

molecule: CNCCN(C)Cc1c[nH]nc1-c1ccc(OC2CCOCC2)nc1 [Compound 119]
uom: µM
IC50: 0.123

molecule: CNCCN(C)Cc1c[nH]nc1-c1ccc(OCCOC)nc1 [Compound 121]
uom: µM
IC50: 0.163

Lab note: next molecule to report on.
GET /values?readout=IC50&item= CNCCN(C)Cc1c[nH]nc1-c1ccc(OCCOc2ccc(OC(F)(F)F)cc2)cc1 [Compound 140]
0.0526

====

Reported pIC50 values for a set of compounds
Target: human PRMT1 (Homo sapiens)
Construct: GST-tagged PRMT1; made in house; host or cells: High Five insect cells (baculovirus, pFastBac1)
Test: PRMT1 Biochemical Assay
Conditions: peptide substrate, 3H-SAM Flashplate assay; read-out: PRMT1 IC50
# reply with the number alone; pIC50 is -log10 of concentration in mol/L

Sample answers from the record:
compound: CNCCN(C)Cc1c[nH]nc1-c1ccc(OC2CC(OCCC(O)CO)C2)cc1 (stereo not drawn) [Compound 149]
test.readout: pIC50
value: 6.76
--
compound: CN(CCN)Cc1c[nH]nc1-c1cc(F)c(Cl)c(C(F)(F)F)c1 [Compound 30]
test.readout: pIC50
value: 8.15
--
compound: CNCCN(C)Cc1c[nH]nc1-c1ccc(OCC2COC2)cc1 [Compound 91]
test.readout: pIC50
value: 7.61
--
compound: CCOCC(C)(C)c1ccc(-c2n[nH]cc2CN(C)CCNC)cc1 [Compound 105]
test.readout: pIC50
value: 7.47
--
compound: CNCCN(C)Cc1c[nH]nc1-c1cc(F)c(OCC2CC2)c(C(F)(F)F)c1 [Compound 3]
test.readout: pIC50
value: 8.40
--
compound: CNCCN(C)Cc1c[nH]nc1-c1ccc(N(C)CCCOc2ccc(OC)cc2)cc1 [Compound 10]
test.readout: pIC50
value: 8.28
--
compound: CNCCN(C)Cc1c[nH]nc1-c1ccc(OC(C)C)nc1 [Compound 83]
test.readout: pIC50
value: 7.69
--
compound: CNCCN(C)Cc1c[nH]nc1-c1ccc(OCCCOC)c(OC2CCOCC2)c1 [Compound 64]
test.readout: pIC50
value: 7.86

Lab note: next compound to report on.
GET /values?readout=pIC50&item= CNCCN(C)Cc1c[nH]nc1-c1cc(CC(C)C)cc(OCCOC)c1 [Compound 71]
7.82
